System: SW-620 colon
Experiment: NCI tumour cell line growth inhibition, 48 h
Measurement kind: TGI

These recorded examples may help you get a feel for the data.
Compound	Result
Cc1cc(C)c2c(c1)CC1(Cc3c(ccc(C)c3C)C1=O)C2=O (configuration not stated)	> 100 µM
CCN1C(C)(C)CC(Oc2ccc(C(=O)Nc3ccc(NC(=O)Nc4cc(C(C)(C)C)on4)cc3)nc2)CC1(C)C	4.37 µM

Task: Any idea what TGI was measured for `c1cc2ccc3cc4ncccc4c4ccc(c1)c2c34` ?
Output: > 100 µM

Task: Could you tell me which TGI is on file for `O=C(CSc1nnc(-c2ccccn2)s1)N/N=C/c1ccc([N+](=O)[O-])cc1` ?
Output: > 100 µM

Task: Field request: TGI | item: CCOP(=O)(OCC)C1CC(C)OC1=O (configuration not stated)
Output: > 100 µM
